Settings: in cyclohexane, 298.75 K
QUANTITY_MEASURED: solubility (mole fraction)
Answer field: number only, no words.

Recorded solubility (mole fraction) of CCCCCCCCCCCCCCCCCCCC(=O)OCCO , please.
0.0044

====

Conditions: in isopropanol, 310.65 K
QUANTITY_MEASURED: solubility (mole fraction)
Answer field: number only, no words.

Recorded solubility (mole fraction) of CCCCCCCCCCCCCCCCCCCC(=O)OCCO , please.
0.0017

====

Conditions: in n-butyl acetate, 313.35 K
QUANTITY_MEASURED: solubility (mole fraction)
Answer field: number only, no words.

Recorded solubility (mole fraction) of CCCCCCCCCCCCCCCCCCCC(=O)OCCO , please.
0.185
